- assay.method.text: Equilibrium solubility of itraconazole in FaSSIF
- Format: physicochemical
- test.settings: thermodynamic from solid; FaSSIF pH 6.5, 37° C., equilibration up to one week
measurement.type: solubility thermodynamic (µM)
Just the number in µM, nothing appended.

State the recorded solubility thermodynamic for this entry: CCC(C)n1ncn(-c2ccc(N3CCN(c4ccc(OCC5COC(Cn6cncn6)(c6ccc(Cl)cc6Cl)O5)cc4)CC3)cc2)c1=O (stereo not shown) 0.4

----------
- assay.method.text: Oral pharmacokinetics in rabbits
- Assay type: in vivo, New Zealand White rabbits
- test.settings: female, New Zealand White, rabbit, plasma, 8 mg, oral
measurement.type: Tmax (h)
Just the number in h, nothing appended.

State the recorded Tmax for this entry: CCC(C)n1ncn(-c2ccc(N3CCN(c4ccc(OCC5COC(Cn6cncn6)(c6ccc(Cl)cc6Cl)O5)cc4)CC3)cc2)c1=O (stereo not shown) [itraconazole] 9.8

----------
- assay.method.text: Oral pharmacokinetics in rabbits
- Assay type: in vivo, New Zealand White rabbits
- test.settings: female, New Zealand White, rabbit, plasma, po, 8 mg, single oral capsule dose about 8 mg, n=5, read-out: AUC0-24 h itraconazole
measurement.type: AUC(0-t)
Write down the value, and be sure its unit follows.

State the recorded AUC(0-t) for this entry: CCC(C)n1ncn(-c2ccc(N3CCN(c4ccc(OCC5COC(Cn6cncn6)(c6ccc(Cl)cc6Cl)O5)cc4)CC3)cc2)c1=O (stereo not shown) 0.521 µM·h
